Tgt: recombinant human Meningioma Expressed Antigen 5 (MGEA5), also referred to as O-GlcNAcase (OGA) (Homo sapiens)
Construct: Full length OGA enzyme was purchased at OriGene (cat # TP322411); purchased OriGene TP322411
Procedure Text: OGA biochemical assay: inhibition of FM-GlcNAc hydrolysis, fluorescence; protocol A (10 nM OGA, 1 h) or protocol B (2 nM OGA, 6 h)
Settings: Enzymatic protocol B (2 nM OGA, 6 h)
Value Kind: Emax (%)

CC(=O)Nc1ncc(CN2CC[C@@H](Cc3ncc(C)cc3C(F)(F)F)C2)s1	101
COc1cc(C[C@H]2CCN(Cc3cnc(NC(C)=O)s3)C2)cc(C(F)(F)F)n1	102
CC(=O)Nc1ncc(CN2CCCC(Oc3cc(C)cc(C)c3)C2)s1 (stereo not drawn) [compound 13, reference compound]	98.7
CC(=O)Nc1ncc([C@@H](C)N2CCC[C@H](COc3cc(C)nc(C)c3)C2)s1 (single isomer, unassigned)	100
CC(=O)Nc1ncc(CN2CCC[C@@H](COc3cc(C)nc(C)c3)C2)s1	103
CC(=O)Nc1ncc(CN2CCC[C@H](Cc3cncc(C)n3)C2)s1	102

---

Tgt: recombinant human Meningioma Expressed Antigen 5 (MGEA5), also referred to as O-GlcNAcase (OGA) (Homo sapiens, UniProt O60502)
Construct: Full length OGA enzyme was purchased at OriGene (cat # TP322411); purchased OriGene TP322411
Sequence (O60502 1-916): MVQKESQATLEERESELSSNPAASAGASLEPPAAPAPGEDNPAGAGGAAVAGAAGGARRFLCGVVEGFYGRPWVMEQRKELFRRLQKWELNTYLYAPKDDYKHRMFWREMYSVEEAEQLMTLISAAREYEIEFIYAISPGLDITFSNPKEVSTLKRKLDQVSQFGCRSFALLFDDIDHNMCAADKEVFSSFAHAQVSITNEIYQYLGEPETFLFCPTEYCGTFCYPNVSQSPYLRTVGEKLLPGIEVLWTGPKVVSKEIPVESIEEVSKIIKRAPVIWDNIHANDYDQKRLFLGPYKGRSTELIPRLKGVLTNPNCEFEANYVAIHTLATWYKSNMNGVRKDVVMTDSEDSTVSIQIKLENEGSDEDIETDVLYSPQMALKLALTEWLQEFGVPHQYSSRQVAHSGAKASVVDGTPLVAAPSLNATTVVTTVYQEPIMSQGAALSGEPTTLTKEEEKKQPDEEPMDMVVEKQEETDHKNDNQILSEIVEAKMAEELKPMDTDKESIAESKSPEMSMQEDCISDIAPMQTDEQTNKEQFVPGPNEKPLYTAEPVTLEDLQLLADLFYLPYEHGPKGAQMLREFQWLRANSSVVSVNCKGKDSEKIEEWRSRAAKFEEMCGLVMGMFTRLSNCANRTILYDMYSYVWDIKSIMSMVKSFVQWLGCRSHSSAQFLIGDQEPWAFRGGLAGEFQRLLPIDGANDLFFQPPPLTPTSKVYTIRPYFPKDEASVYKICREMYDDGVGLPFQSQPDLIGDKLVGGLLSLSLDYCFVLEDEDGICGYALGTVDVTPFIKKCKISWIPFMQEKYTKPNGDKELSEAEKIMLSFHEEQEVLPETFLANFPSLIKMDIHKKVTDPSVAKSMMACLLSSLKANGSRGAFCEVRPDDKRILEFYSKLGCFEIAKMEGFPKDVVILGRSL
Procedure Text: OGA biochemical assay: inhibition of FM-GlcNAc hydrolysis, fluorescence; protocol A (10 nM OGA, 1 h) or protocol B (2 nM OGA, 6 h)
Settings: Enzymatic protocol B (2 nM OGA, 6 h)
Value Kind: Emax (%)

CC(=O)Nc1ncc(CN2CCC(Cc3nccc(C)c3F)C2)s1 (stereo not drawn)	102
CC(=O)Nc1ncc(CN2CC[C@H](Cc3ccnc(F)c3)C2)s1	101
Cc1cc(C[C@H]2CCN(C(C)c3ccc4nccnc4c3)C2)cc(C)n1 (mixture of isomers)	97
COc1ccc(C)nc1C[C@H]1CCN(Cc2cnc(NC(C)=O)s2)C1	100
CC(=O)Nc1ncc(CN2CC[C@H](Nc3cc(C)nc(C)c3)C2)s1	101
CC(=O)Nc1ncc(CN2CCCC(COc3cc(C)nc(C)c3)C2)o1 (stereo not drawn)	102

Where do the numbers come from? From patent US20200079766A1.
